System: 252836-082-R-J2-PDC tumor spheroids, viability;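 also: spheroids exposed to agents for seven days before readout; percent of vehicle DMSO control viability so 100% = untreated growth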
Assay Protocol: Anticancer human tumor 252836-082-R-J2-PDC patient-derived head and neck squamous cell carcinoma cell line growth inhibition [PI3K]
Test Settings: second compound 10 µM; first compound 1 µM; hits give low values; spheroids with HUVEC and MSC
Metric Name: viability, T/C (%)
Value expressed in %; do not type the unit.

query: # query: viability, T/C of entry CCCS(=O)(=O)Nc1ccc(F)c(C(=O)c2c[nH]c3ncc(-c4ccc(Cl)cc4)cc23)c1F + Cc1nc(NC(=O)N2CCCC2C(N)=O)sc1-c1ccnc(C(C)(C)C(F)(F)F)c1
result: 37.8

query: # query: viability, T/C of entry Cn1ncc(Cl)c1-c1cc(C(=O)NC(CN)Cc2cccc(F)c2)sc1Cl (stereo not drawn) + CC(Nc1ncnc2nc[nH]c12)c1cc2cccc(Cl)c2c(=O)n1-c1ccccc1
result: 30.7

query: # query: viability, T/C of entry CC1(C)CCC(CN2CCN(c3ccc(C(=O)NS(=O)(=O)c4ccc(NCC5CCOCC5)c([N+](=O)[O-])c4)c(Oc4cnc5[nH]ccc5c4)c3)CC2)=C(c2ccc(Cl)cc2)C1 + Cc1nc(NC(=O)N2CCCC2C(N)=O)sc1-c1ccnc(C(C)(C)C(F)(F)F)c1
result: 34
